Reference source for all entries: patent US8951999B2

# TGT: recombinant human mPGES-1 (Homo sapiens, UniProt O14684)
# Sequence (O14684 whole entry): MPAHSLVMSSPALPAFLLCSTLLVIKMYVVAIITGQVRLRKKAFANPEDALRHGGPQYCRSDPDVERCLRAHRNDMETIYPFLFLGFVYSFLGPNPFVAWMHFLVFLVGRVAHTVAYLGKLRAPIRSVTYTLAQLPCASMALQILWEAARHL
# MEASUREMENT DESCRIPTION: Assay B: mPGES-1 enzyme assay (modified)
# Type: biochemical
# CONDITIONS: biological assay B (all other compounds); PGH2 final conc. 2 μM, HTRF; read-out: mPGES-1 inhibitory effect IC50
OUTCOME MEASURE: pIC50
Quick note: pIC50 values are minus log10 of concentrations in mol/L.

These recorded examples may help you get a feel for the data.
- COMPOUND: "COCCOc1ccc(NC(=O)c2cc(CNC(=O)C(C)(C)C)ccc2Cl)cc1C(=O)Nc1ccc(Br)cc1 [Example 70]"
  pIC50: 8.30
- COMPOUND: "CC(C)(C)C(=O)NCc1ccc(Cl)c(C(=O)Nc2ccc(N3CC(F)(F)C3)c(C(=O)Nc3ccc(Br)cc3)c2)c1 [Example 60]"
  pIC50: 7.59
- COMPOUND: "CC(C)(C(=O)NCc1ccc(Cl)c(C(=O)Nc2ccc(OCC(F)F)c(C(=O)Nc3ccc(F)c(Cl)c3)c2)c1Cl)C(F)(F)F [Example 145]"
  pIC50: 8.00

From here, focus on the item given below.
Request: Please give the measured pIC50 for this compound: CC(C)(C(=O)NCc1ccc(Cl)c(C(=O)Nc2ccc(OCC(F)F)c(C(=O)NC3CC(F)(F)C3)c2)c1Cl)C(F)(F)F [Example 154]
Response: 8.05
